Value source: the RNAGym collection of RNA variant scans (doi:10.1002/anie.201605470)

B1: Osa-1-4 twister ribozyme (parent)
chain: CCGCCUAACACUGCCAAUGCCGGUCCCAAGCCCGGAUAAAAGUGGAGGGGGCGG

- Variants of: B1
- METHOD NOTES: self-cleavage, relative activity (ratio to wild type); higher = more cleavage; co-transcriptional
READOUT: self-cleavage
Format: numeric value only, no unit, no commentary.

In the examples that follow, each entry is paired with its recorded self-cleavage.
[
  {
    "CHANGES": "A29U C15U",
    "self-cleavage": 0.07
  },
  {
    "CHANGES": "C33U G34C",
    "self-cleavage": 0.21
  },
  {
    "CHANGES": "C25A U12G",
    "self-cleavage": 0.06
  },
  {
    "CHANGES": "A29C U24G",
    "self-cleavage": 0.02
  },
  {
    "CHANGES": "G19C G50A",
    "self-cleavage": 0.24
  }
]

Lookup: For the variant C11G U43A , what self-cleavage is on record?
Found: 0.15

Lookup: Also A40C C9U ?
Found: 0.05

Lookup: Try this variant too: C31G G42C
Found: 0.05

Lookup: How about this variant: G49C U18C
Found: 0.05

Lookup: Another variant to check: C20U C33G
Found: 0.07

Lookup: Input A36C U24C
Found: 0.07
